- assay_conditions: in isopropanol, 278.15 K
measured_property: solubility (mole fraction)

>>> print(df.to_string())
      line_notation           measured_property  meas_value
0  Cc1nc(C)c(C)nc1C  solubility (mole fraction)      0.0702

====

- assay_conditions: in isopropanol, 298.15 K
measured_property: solubility (mole fraction)

In [3]: df
Out[3]:
      line_notation  meas_value
0  Cc1nc(C)c(C)nc1C       0.142

====

- assay_conditions: in n-propanol, 288.15 K
measured_property: solubility (mole fraction)

      line_notation  meas_value
0  Cc1nc(C)c(C)nc1C       0.158
